We begin with a simple list: items and their reported IC50.
# Test system: NIH3T3 cells
# experiment summary: CCK8 anti-proliferative assay, mouse fibroblast cell line
# Type: cell-based
# test conditions: Mus musculus, NIH3T3, NIH3T3 cells, CCK8

{"columns": ["compound", "IC50 / µM"],
 "data": [
  ["Cc1ccc(=O)n(-c2ccc(NC(=O)[C@@H](C)N(C)C)cc2)c1 [Compound 5c]", 490],
  ["CC(=O)N(C(C)=O)c1ccc(Cn2cc(C(F)(F)F)ccc2=O)cc1 [Compound 9b]", 87],
  ["CC(=O)N(C(C)=O)c1ccc(Cn2cc(C)ccc2=O)cc1 [Compound 9d]", 69]
]}
